Listed here are molecules together with their documented IC50.
assayed.target: UniProt:P27338
Sequence (P27338 whole entry): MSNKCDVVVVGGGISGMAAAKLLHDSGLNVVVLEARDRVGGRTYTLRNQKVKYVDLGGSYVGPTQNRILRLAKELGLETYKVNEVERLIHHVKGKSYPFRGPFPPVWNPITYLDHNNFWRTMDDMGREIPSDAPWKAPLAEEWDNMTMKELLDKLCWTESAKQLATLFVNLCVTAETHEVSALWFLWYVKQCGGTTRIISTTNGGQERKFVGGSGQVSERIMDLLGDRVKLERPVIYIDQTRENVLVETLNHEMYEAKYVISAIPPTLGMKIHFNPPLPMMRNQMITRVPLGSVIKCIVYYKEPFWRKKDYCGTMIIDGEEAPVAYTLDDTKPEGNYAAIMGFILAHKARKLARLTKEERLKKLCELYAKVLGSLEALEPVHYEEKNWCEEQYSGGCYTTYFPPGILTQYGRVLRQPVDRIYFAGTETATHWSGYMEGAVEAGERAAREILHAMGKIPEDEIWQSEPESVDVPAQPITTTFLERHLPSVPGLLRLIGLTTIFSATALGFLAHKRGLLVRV
method.notes: Inhibition of recombinant human MAO-B
Use µM as the unit, but write only the number.

Field: example entries. Status: answers known.
molecule.smiles	IC50 / µM
CCN(C)C(=O)Oc1ccc(/C=C/C(=O)N2CCN(Cc3ccccc3)CC2)cc1	21.3
CCN(CC)C(=O)Oc1ccc(/C=C/C(=O)N2CCC(Cc3ccccc3)CC2)cc1OC	5.13
CCN(CC)C(=O)/C=C/c1ccc(OC(=O)N(C)C)c(OC)c1	31.8

Exam item: What value of measured IC50 is listed for CCN(C)C(=O)Oc1ccc(/C=C/C(=O)N2CCC(Cc3ccccc3)CC2)cc1OC ?
Marked response: 7.52

Exam item: IC50 lookup needed for COc1cc(/C=C/C(=O)N2CCCCC2)ccc1OC(=O)N(c1ccccc1)c1ccccc1 , thanks.
Marked response: 21.8

###

method.notes: Toxicity in AlCl3-induced Zebrafish model of Alzheimer's disease assessed as mortality at 100 ug/ml relative to control
Set-up: species or system Danio rerio
test.settings: in vivo, at 100 µg/mL
experimental.endpoint: mortality at 100 ug/ml (%)
Answer format: numeric, % implied, no suffix.

Exam item: // query mortality at 100 ug/ml value for entry CCN(C)C(=O)Oc1ccc(/C=C/C(=O)N2CCc3ccccc3C2)cc1OC
Marked response: 100

###

method.notes: Toxicity in Zebrafish assessed as mortality at 25 ug/ml relative to control
Parameters: species or system Danio rerio
test.settings: in vivo, at 25 µg/mL
experimental.endpoint: mortality at 25 ug/ml (%)
Supply the numeric figure in %, leaving out any unit text.

Exam item: What does the data say about its mortality at 25 ug/ml? Entry: CCN(C)C(=O)Oc1ccc(/C=C/C(=O)N2CCc3ccccc3C2)cc1OC
Marked response: 100

###

method.notes: Toxicity in Zebrafish assessed as death at 6.25 ug/ml relative to control
Parameters: species or system Danio rerio
test.settings: in vivo, at 6.25 µg/mL, read-out: Activity
experimental.endpoint: mortality at 6.25 ug/ml (%)
# value in %; strip the unit string

Exam item: Would you kindly share the measured mortality at 6.25 ug/ml for CCN(C)C(=O)Oc1ccc(/C=C/C(=O)N2CCc3ccccc3C2)cc1OC ?
Marked response: 13.3

Data credit: ChEMBL document CHEMBL4680246
